# Experimental System: RAS guanyl-releasing protein 1 (Homo sapiens, UniProt O95267)
# Sequence (O95267 whole entry): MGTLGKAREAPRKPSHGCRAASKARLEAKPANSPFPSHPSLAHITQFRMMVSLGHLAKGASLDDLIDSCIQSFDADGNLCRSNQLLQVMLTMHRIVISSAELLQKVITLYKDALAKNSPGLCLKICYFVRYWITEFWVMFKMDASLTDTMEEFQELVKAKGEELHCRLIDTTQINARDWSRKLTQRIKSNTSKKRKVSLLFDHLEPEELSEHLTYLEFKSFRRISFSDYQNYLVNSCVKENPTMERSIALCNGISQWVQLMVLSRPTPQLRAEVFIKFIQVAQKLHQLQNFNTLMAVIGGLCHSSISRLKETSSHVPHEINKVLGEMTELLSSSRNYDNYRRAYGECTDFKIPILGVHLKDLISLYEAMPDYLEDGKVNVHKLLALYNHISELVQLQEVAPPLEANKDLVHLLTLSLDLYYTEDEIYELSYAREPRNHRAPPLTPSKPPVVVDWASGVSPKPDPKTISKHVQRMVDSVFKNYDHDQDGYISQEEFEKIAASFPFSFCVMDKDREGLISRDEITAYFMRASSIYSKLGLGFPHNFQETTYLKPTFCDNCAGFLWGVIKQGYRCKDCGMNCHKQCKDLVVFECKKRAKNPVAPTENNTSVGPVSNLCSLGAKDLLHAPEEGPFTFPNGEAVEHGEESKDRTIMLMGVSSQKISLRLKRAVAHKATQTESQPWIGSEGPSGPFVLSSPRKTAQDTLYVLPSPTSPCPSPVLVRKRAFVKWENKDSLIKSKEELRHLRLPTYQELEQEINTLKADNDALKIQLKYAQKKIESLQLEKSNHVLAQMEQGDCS
# Test: Displacement of [20-3H]phorbol 12,13-dibutyrate from RasGRP1 (unknown origin) in the presence of porcine brain phosphatidylserine by scintillation counting
Would you mind telling me the reported pKi of each entry?
Value format note: pKi is -log10 of concentration (mol/L); just state the number.

Consider the molecule CCCCCCCCC/C=C1\CC(CO)(COC(=O)c2cn(C)c3ccccc23)OC1=O (stereo not drawn) . State its measured pKi. 7.20

Identify the reported pKi for the following entry. CC(C)=C1CC(CO)(COC(=O)c2cn(C)c3ccccc23)OC1=O (stereo not drawn) 6.18

Given the molecule CC(C)CC(C/C=C1/CC(CO)(COC(=O)c2cn(C)c3ccccc23)OC1=O)CC(C)C (stereo not drawn) , write its reported pKi. 7.65

Tell me pKi reported for CCCC(/C=C1\CC(CO)(COC(=O)c2cn(C)c3ccccc23)OC1=O)CCC (stereo not drawn) 6.88

Note down pKi recorded for Cc1ccc(C#Cc2ccc(/C=C3\CC(CO)(COC(=O)c4cn(C)c5ccccc45)OC3=O)cc2)cc1 (stereo not drawn) 7.40

Give me measured pKi, please, for this molecule: Cc1ccc(C#Cc2ccc(C=C3CC(CO)(COC(=O)c4cn(C)c5ccccc45)OC3=O)cc2)cc1 (stereo not drawn) 7.65

Supply pKi value. Item: CCCC(CCC)C(=O)OCC1(CO)C/C(=C\c2cn(C)c3ccccc23)C(=O)O1 (stereo not drawn) 9.24

Write down pKi measured for item CC(C)CC(C/C=C1\CC(CO)(COC(=O)c2cn(C)c3ccccc23)OC1=O)CC(C)C (stereo not drawn) 7.50

---

# Organism: Homo sapiens
# Test: Selectivity index, ratio of Ki for PKCalpha (unknown origin) to Ki for RasGRP1 (unknown origin)
Give measured Ratio Ki for each item. Keep answers brief.
Give a plain numeric answer without units written out.

Could you please provide reported Ratio Ki for CCCC(CCC)C(=O)OCC1(CO)C/C(=C\c2cn(C)c3ccccc23)C(=O)O1 (stereo not drawn) ? Thanks! 22

Using the record for CC(C)CC(C/C=C1\CC(CO)(COC(=O)c2cn(C)c3ccccc23)OC1=O)CC(C)C (stereo not drawn) , state its measured Ratio Ki. 2.3

Report Ratio Ki, nothing else, for this compound: Cc1ccc(C#Cc2ccc(C=C3CC(CO)(COC(=O)c4cn(C)c5ccccc45)OC3=O)cc2)cc1 (stereo not drawn) 5.1

Give Ratio Ki for CC(C)=C1CC(CO)(COC(=O)c2cn(C)c3ccccc23)OC1=O (stereo not drawn) 1.08

Output Ratio Ki of Cc1ccc(C#Cc2ccc(/C=C3\CC(CO)(COC(=O)c4cn(C)c5ccccc45)OC3=O)cc2)cc1 (stereo not drawn) 6.5

Quote Ratio Ki reported for CC(C)CC(C/C=C1/CC(CO)(COC(=O)c2cn(C)c3ccccc23)OC1=O)CC(C)C (stereo not drawn) please. 3.7

Tell me Ratio Ki reported for CCCC(/C=C1\CC(CO)(COC(=O)c2cn(C)c3ccccc23)OC1=O)CCC (stereo not drawn) 3.8

Supply recorded Ratio Ki for CCCCCCCCC/C=C1\CC(CO)(COC(=O)c2cn(C)c3ccccc23)OC1=O (stereo not drawn) here. 1.7

---

# Species on record: Homo sapiens
# Test: Selectivity index, ratio of Ki for PKCalpha (unknown origin) to Ki for PKCepsilon (unknown origin)
Please go through the items and note down their Ratio Ki.
Field format: numeric only.

Please report Ratio Ki for the following compound: CCCCCCCCC/C=C1\CC(CO)(COC(=O)c2cn(C)c3ccccc23)OC1=O (stereo not drawn) 1.8

Report Ratio Ki for CC(C)CC(C/C=C1\CC(CO)(COC(=O)c2cn(C)c3ccccc23)OC1=O)CC(C)C (stereo not drawn) 2.7

Note down Ratio Ki recorded for CC(C)=C1CC(CO)(COC(=O)c2cn(C)c3ccccc23)OC1=O (stereo not drawn) 2.3

Return Ratio Ki (reported value) for this compound: CCCC(CCC)C(=O)OCC1(CO)C/C(=C\c2cn(C)c3ccccc23)C(=O)O1 (stereo not drawn) 0.42

# return recorded Ratio Ki for input Cc1ccc(C#Cc2ccc(/C=C3\CC(CO)(COC(=O)c4cn(C)c5ccccc45)OC3=O)cc2)cc1 (stereo not drawn) 2.2

Fill in reported Ratio Ki for this entry: Cc1ccc(C#Cc2ccc(C=C3CC(CO)(COC(=O)c4cn(C)c5ccccc45)OC3=O)cc2)cc1 (stereo not drawn) 0.89

Provide measured Ratio Ki value, entry: CC(C)CC(C/C=C1/CC(CO)(COC(=O)c2cn(C)c3ccccc23)OC1=O)CC(C)C (stereo not drawn) 1.5

For CCCC(/C=C1\CC(CO)(COC(=O)c2cn(C)c3ccccc23)OC1=O)CCC (stereo not drawn) , write its Ratio Ki. 1.7

---

Kindly state Ki for each of the entries shown.
# Experimental System: Protein kinase C alpha type (Homo sapiens)
# Test: Displacement of [20-3H]phorbol 12,13-dibutyrate from PKCalpha (unknown origin) in the presence of porcine brain phosphatidylserine by scintillation counting
The response must be a number in nM with no trailing unit.

Let me know recorded Ki for CCCCCCCCC/C=C1\CC(CO)(COC(=O)c2cn(C)c3ccccc23)OC1=O (stereo not drawn) , thanks. 106

Hello, please tell me recorded Ki for this one: CCCC(CCC)C(=O)OCC1(CO)C/C(=C\c2cn(C)c3ccccc23)C(=O)O1 (stereo not drawn) 12.9

Given Cc1ccc(C#Cc2ccc(/C=C3\CC(CO)(COC(=O)c4cn(C)c5ccccc45)OC3=O)cc2)cc1 (stereo not drawn) , respond with its Ki. 257

Quickly give me recorded Ki for Cc1ccc(C#Cc2ccc(C=C3CC(CO)(COC(=O)c4cn(C)c5ccccc45)OC3=O)cc2)cc1 (stereo not drawn) 116

Report Ki, nothing else, for this compound: CC(C)CC(C/C=C1/CC(CO)(COC(=O)c2cn(C)c3ccccc23)OC1=O)CC(C)C (stereo not drawn) 83.1

Assign Ki to the following record: CC(C)=C1CC(CO)(COC(=O)c2cn(C)c3ccccc23)OC1=O (stereo not drawn) 698

Give Ki for the following compound: CCCC(/C=C1\CC(CO)(COC(=O)c2cn(C)c3ccccc23)OC1=O)CCC (stereo not drawn) 504

Supply recorded Ki for CC(C)CC(C/C=C1\CC(CO)(COC(=O)c2cn(C)c3ccccc23)OC1=O)CC(C)C (stereo not drawn) here. 73

---

# Organism: Homo sapiens
# Test: Selectivity index, ratio of Ki for PKCepsilon (unknown origin) to Ki for RasGRP1 (unknown origin)
Quick rule for you: Ratio Ki at 0.9 or higher means rule met, lower means rule not met.

Test whether the molecule Cc1ccc(C#Cc2ccc(/C=C3\CC(CO)(COC(=O)c4cn(C)c5ccccc45)OC3=O)cc2)cc1 (stereo not drawn) records Ratio Ki of 0.9 or higher. rule met

Does the molecule CC(C)CC(C/C=C1/CC(CO)(COC(=O)c2cn(C)c3ccccc23)OC1=O)CC(C)C (stereo not drawn) have recorded Ratio Ki that is 0.9 or more? rule met

Form field: Ratio Ki at least 0.9? Entry: CC(C)CC(C/C=C1\CC(CO)(COC(=O)c2cn(C)c3ccccc23)OC1=O)CC(C)C (stereo not drawn) rule not met

Does CC(C)=C1CC(CO)(COC(=O)c2cn(C)c3ccccc23)OC1=O (stereo not drawn) have a reported Ratio Ki of at least 0.9? rule not met

Evaluate CCCC(/C=C1\CC(CO)(COC(=O)c2cn(C)c3ccccc23)OC1=O)CCC (stereo not drawn) : Ratio Ki at minimum 0.9? rule met

Would you say CCCCCCCCC/C=C1\CC(CO)(COC(=O)c2cn(C)c3ccccc23)OC1=O (stereo not drawn) shows Ratio Ki at minimum 0.9? rule met

Test whether the molecule Cc1ccc(C#Cc2ccc(C=C3CC(CO)(COC(=O)c4cn(C)c5ccccc45)OC3=O)cc2)cc1 (stereo not drawn) records Ratio Ki of 0.9 or higher. rule met

Entry CCCC(CCC)C(=O)OCC1(CO)C/C(=C\c2cn(C)c3ccccc23)C(=O)O1 (stereo not drawn) : is its Ratio Ki no less than 0.9? rule met

---

# Experimental System: Protein kinase C epsilon type (Homo sapiens)
# Sequence (Q02156 whole entry): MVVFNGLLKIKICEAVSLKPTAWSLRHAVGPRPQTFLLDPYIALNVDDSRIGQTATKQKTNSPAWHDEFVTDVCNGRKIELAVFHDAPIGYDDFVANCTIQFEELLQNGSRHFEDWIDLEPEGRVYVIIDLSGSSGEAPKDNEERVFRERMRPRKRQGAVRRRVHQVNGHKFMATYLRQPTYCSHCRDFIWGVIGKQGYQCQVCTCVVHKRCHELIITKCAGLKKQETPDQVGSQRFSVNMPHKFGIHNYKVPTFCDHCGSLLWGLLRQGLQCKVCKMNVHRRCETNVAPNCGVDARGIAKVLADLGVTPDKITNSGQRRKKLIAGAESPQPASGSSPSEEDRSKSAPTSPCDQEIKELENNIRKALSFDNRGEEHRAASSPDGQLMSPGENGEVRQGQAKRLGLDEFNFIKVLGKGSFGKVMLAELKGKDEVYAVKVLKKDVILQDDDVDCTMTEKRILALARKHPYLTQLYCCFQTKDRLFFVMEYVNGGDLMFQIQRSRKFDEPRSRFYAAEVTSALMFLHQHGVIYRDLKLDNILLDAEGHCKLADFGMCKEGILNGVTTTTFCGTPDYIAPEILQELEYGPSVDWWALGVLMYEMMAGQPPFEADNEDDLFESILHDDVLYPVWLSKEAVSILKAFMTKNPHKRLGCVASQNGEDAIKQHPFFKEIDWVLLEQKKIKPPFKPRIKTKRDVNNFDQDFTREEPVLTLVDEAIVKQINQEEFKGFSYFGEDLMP
# Test: Displacement of [20-3H]phorbol 12,13-dibutyrate from PKCepsilon (unknown origin) in the presence of porcine brain phosphatidylserine by scintillation counting
Test Readout: Ki (nM)
Kindly answer with a numeric value in nM, unit omitted.

Answer briefly: Ki recorded on Protein kinase C epsilon type (Homo sapiens) for CC(C)CC(C/C=C1/CC(CO)(COC(=O)c2cn(C)c3ccccc23)OC1=O)CC(C)C (stereo not drawn) 55

Determine reported Ki for Cc1ccc(C#Cc2ccc(/C=C3\CC(CO)(COC(=O)c4cn(C)c5ccccc45)OC3=O)cc2)cc1 (stereo not drawn) ; test system: Protein kinase C epsilon type (Homo sapiens). 119

Please look at CC(C)CC(C/C=C1\CC(CO)(COC(=O)c2cn(C)c3ccccc23)OC1=O)CC(C)C (stereo not drawn) and tell me its recorded Ki on Protein kinase C epsilon type (Homo sapiens). 27.3

For Protein kinase C epsilon type (Homo sapiens), give the measured Ki of the entry CC(C)=C1CC(CO)(COC(=O)c2cn(C)c3ccccc23)OC1=O (stereo not drawn) 301

Provide Ki, system Protein kinase C epsilon type (Homo sapiens), entry CCCC(/C=C1\CC(CO)(COC(=O)c2cn(C)c3ccccc23)OC1=O)CCC (stereo not drawn) 295

Please respond with reported Ki (system Protein kinase C epsilon type (Homo sapiens)) for Cc1ccc(C#Cc2ccc(C=C3CC(CO)(COC(=O)c4cn(C)c5ccccc45)OC3=O)cc2)cc1 (stereo not drawn) . 131

// fetch Ki; item: CCCC(CCC)C(=O)OCC1(CO)C/C(=C\c2cn(C)c3ccccc23)C(=O)O1 (stereo not drawn) ; system: Protein kinase C epsilon type (Homo sapiens) 31

Retrieve Ki on Protein kinase C epsilon type (Homo sapiens); query CCCCCCCCC/C=C1\CC(CO)(COC(=O)c2cn(C)c3ccccc23)OC1=O (stereo not drawn) 59.6
